Recorded values, source patent US10689354B2.

Target: androgen receptor (AR-LBD) (Rattus norvegicus, UniProt P15207)
Construct: 5 μL of 2×AR-LBD/Fluoromone AL Red Complex contained in the kit; purchased Invitrogen
Sequence (P15207 651-882 limits assumed): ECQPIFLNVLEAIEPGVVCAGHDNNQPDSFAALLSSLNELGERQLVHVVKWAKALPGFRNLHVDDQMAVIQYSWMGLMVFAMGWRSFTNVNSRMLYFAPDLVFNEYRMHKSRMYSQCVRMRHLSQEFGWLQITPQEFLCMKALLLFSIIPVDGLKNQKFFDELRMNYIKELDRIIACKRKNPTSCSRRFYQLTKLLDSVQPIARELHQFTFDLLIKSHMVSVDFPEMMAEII
Assay: Evaluation of androgen receptor affinity (PolarScreen Androgen Receptor Competitor Assay Kit, Red; fluorescence polarization)
Details: 22° C. for 5 hours, relative to binding rate of 1 μM DHT, read-out: AR affinity (pEC50) (converted)
Answer each item with its documented EC50.

Cc1sc(N(Cc2ccccc2)Cc2ccncc2)nc1C(=O)NS(C)(=O)=O    > 2000 nM
Cc1sc(N(CCc2cccnc2)Cc2ccc(Cl)cc2)nc1C(=O)NS(C)(=O)=O    > 2000 nM
Cc1sc(N(Cc2ccccc2)c2ccc(CO)cc2)nc1C(=O)NS(C)(=O)=O    > 2000 nM
Cc1sc(N(CCc2c(Cl)cccc2Cl)Cc2ccccc2)nc1C(=O)NS(C)(=O)=O    > 2000 nM

Please supply EC50 for each of the following items, keeping them in order.
1. Cc1oc(N(CC2CCC(F)(F)CC2)c2ccc(C#N)cc2)nc1C(=O)NS(C)(=O)=O
2. COc1cccc(N(Cc2ccccc2)c2nc(C(=O)NS(C)(=O)=O)c(C)s2)c1
3. Cc1sc(N(Cc2ccc(Br)c(Cl)c2)c2ccc(C#N)cc2)nc1C(=O)NS(C)(=O)=O

Found:
1: > 2000 nM; 2: > 2000 nM; 3: > 2000 nM

Batch lookup, EC50 per entry.
1. Cc1sc(N(Cc2cccc(Cl)c2)c2ccc(C#N)cc2)nc1C(=O)NS(C)(=O)=O
2. Cc1sc(N(Cc2cccnc2)c2ccc(C#N)cc2)nc1C(=O)NS(C)(=O)=O
3. CS(=O)(=O)NC(=O)c1nc(N(Cc2ccc(F)cn2)c2ccc(C#N)cc2)sc1Br
4. Cc1sc(N(CCn2cccn2)Cc2ccccc2)nc1C(=O)NS(C)(=O)=O

Found:
1. 25.1 nM
2. > 2000 nM
3. 398 nM
4. > 2000 nM

Batch of 3 molecules: report EC50 for each.
1. Cc1sc(N(Cc2ccnc(C(F)(F)F)c2)c2ccc(C#N)cc2)nc1C(=O)NS(C)(=O)=O
2. Cc1sc(N(Cc2cccc(C#N)c2)c2ccc(C#N)cc2)nc1C(=O)NS(C)(=O)=O
3. Cc1sc(N(CCc2ccc(C#N)cc2)Cc2ccc(OC(F)(F)F)cc2)nc1C(=O)NS(=O)(=O)Cc1cccc(F)c1

Found:
1. 398 nM
2. 100 nM
3. 200 nM
